assay: Compound was tested for inhibition of thermolysine, a bacterial zinc-endopeptidase; format: functional
Property label: IC50 (µM)
// return numeric value only (unit: µM, not printed)

Lookup: Recorded IC50 of O=C(O)CNC(=O)[C@@H]1[C@@H](S)CC[C@H]1c1ccccc1 , please.
Found: 110

Lookup: Entry O=C(O)CNC(=O)[C@H](CS)Cc1ccccc1 [(R)-THIORPHAN] : reported IC50 = ?
Found: 3

Lookup: Fill in: IC50 of O=C(O)CNC(=O)[C@H]1[C@H](S)CC[C@@H]1c1ccccc1 is ___
Found: 29

Lookup: Can you share its IC50? I mean this compound: O=C(O)CNC(=O)[C@@H](CS)Cc1ccccc1 [(S)-THIORPHAN]
Found: 1.8
